system: RARa:RXR (NR concentration 270 nM, RXRa partner concentration 90 nM); test: PBM binding z-score (relative to random genomic background probes); higher = stronger binding; sequences stand for … in GC…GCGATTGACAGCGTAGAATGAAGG
parameter measured: PBM binding z-score
The reply should be a number, written without any unit.

Here's what some known entries look like.
1. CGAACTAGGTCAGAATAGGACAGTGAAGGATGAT; 1.01
2. TCATATAGATAAACAGGTGAAAGTCCGTAAGTTA; 1.37
3. TCTTGTAGATAAAAGGTTAAGAAAGCCGAAGCCT; 1.84

Noted PBM binding z-score for "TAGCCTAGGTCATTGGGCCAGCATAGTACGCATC" , tested on RARa:RXR (NR concentration 270 nM, RXRa partner concentration 90 nM): 2.11

Noted PBM binding z-score for "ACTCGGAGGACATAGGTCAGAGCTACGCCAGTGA" , tested on RARa:RXR (NR concentration 270 nM, RXRa partner concentration 90 nM): 1.9

Noted PBM binding z-score for "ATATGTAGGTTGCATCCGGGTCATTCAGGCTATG" , tested on RARa:RXR (NR concentration 270 nM, RXRa partner concentration 90 nM): 2.73

* * *

system: THRa homodimer (NR concentration 90 nM); assay: PBM binding z-score (relative to random genomic background probes); higher = stronger binding; sequences stand for … in GC…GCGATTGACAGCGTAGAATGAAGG
Answer Not fulfilled if PBM binding z-score is under 1, and Fulfilled if it is 1 or more.

1) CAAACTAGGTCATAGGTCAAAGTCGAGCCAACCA; Fulfilled
2) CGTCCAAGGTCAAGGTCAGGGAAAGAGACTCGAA; Fulfilled
3) CCTACCGGGCCAAAAAGGTCATTGATGCCGATAA; Fulfilled
4) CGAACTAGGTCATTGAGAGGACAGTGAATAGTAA; Fulfilled
5) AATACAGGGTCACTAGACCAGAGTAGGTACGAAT; Fulfilled

Now take the following sequence into account.
Prompt line: Exam item: decide whether the reported PBM binding z-score for "GCTAGCAGGCCATTTGGGTCACCCAATGACGGGC" is at least 1.
Response line: Not fulfilled

* * *

tested on: RXRa homodimer (NR concentration 180 nM); experiment: PBM binding z-score (relative to random genomic background probes); higher = stronger binding; sequences stand for … in GC…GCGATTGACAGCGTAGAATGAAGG
Answer no (0) if PBM binding z-score is under 2, and yes (1) if it is 2 or more.

Sample answers from the record:
1) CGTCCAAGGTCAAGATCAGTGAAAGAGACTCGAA; yes (1)
2) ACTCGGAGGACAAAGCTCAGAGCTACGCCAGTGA; no (0)
3) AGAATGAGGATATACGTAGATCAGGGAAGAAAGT; no (0)
4) CCAAGCAGGCCAATCTGGGTCACTCAAGGCTTGA; no (0)
5) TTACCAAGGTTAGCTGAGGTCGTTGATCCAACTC; no (0)

Prompt line: Exam item: decide whether the reported PBM binding z-score for "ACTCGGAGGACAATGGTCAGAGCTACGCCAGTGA" is at least 2.
Response line: no (0)

Prompt line: Exam item: decide whether the reported PBM binding z-score for "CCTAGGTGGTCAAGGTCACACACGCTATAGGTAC" is at least 2.
Response line: yes (1)

Prompt line: Exam item: decide whether the reported PBM binding z-score for "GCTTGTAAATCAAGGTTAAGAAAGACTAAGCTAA" is at least 2.
Response line: no (0)

Prompt line: Exam item: decide whether the reported PBM binding z-score for "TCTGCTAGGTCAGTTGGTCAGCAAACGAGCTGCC" is at least 2.
Response line: no (0)

Prompt line: Exam item: decide whether the reported PBM binding z-score for "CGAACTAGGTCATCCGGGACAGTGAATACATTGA" is at least 2.
Response line: yes (1)
